Ref: PubChem BioAssay (Tox21)

# target desc: Estrogen receptor beta (Homo sapiens)
# method description: qHTS assay to identify small molecule antagonists of the estrogen receptor beta (ER-beta) signaling pathway (AID 1259378); further: potency means the concentration at half of the fitted maximal effect
# assay conditions: ER-beta-UAS-bla HEK293T, beta-lactamase FRET ratio, 16 h; series mostly up to 92.4 µM
Records with an inconclusive call do not appear. Calls of active or inactive are those of the source. The call rests on the fitted dose curve; in most records, active means well fitted inhibition curve with a large enough effect in the signal ratio in the repeat runs (not every such curve was filed as active); inconclusive means weak or mixed curves, or effect the other way; inactive means no such curve, though single readings can be large or run the other way; the % refers to the signal ratio.
parameter measured: Potency

• CCCCOC(=O)C(C)CC (centres undefined) = inactive
• CO[C@H]1C=CO[C@@]2(C)Oc3c(C)c(O)c4c(O)c(cc(O)c4c3C2=O)NC(=O)/C(C)=C\C=C/[C@H](C)[C@H](O)[C@@H](C)[C@@H](O)[C@@H](C)[C@H](OC(C)=O)[C@@H]1C = 43.6 µM (active)
• CCOCOCC = inactive
• CCN(CC)CCOc1ccc(C(O)(Cc2ccc(Cl)cc2)c2ccc(C)cc2)cc1 (centres undefined) = 10.6 µM (active)
• COC(=O)[C@]1(C)CCC[C@@]2(C)[C@H]1CC=C1C=C(C(C)C)CC[C@@H]12 = inactive
• Clc1cc(Cl)c(-c2c(Cl)c(Cl)cc(Cl)c2Cl)cc1Cl = inactive
• CCOC(=O)C1=C(C)NC(C)=C(C(=O)OCC)C1c1ccccc1/C=C/C(=O)OC(C)(C)C = inactive
• Cc1cncc(C)c1 = inactive
• CC(C)(c1cc(Br)c(OCCO)c(Br)c1)c1cc(Br)c(OCCO)c(Br)c1 = 4.75 µM (active)

---

# target desc: Cytochrome P450 2C19 (Homo sapiens) (UniProt P33261)
# Sequence (P33261 whole entry, looked up): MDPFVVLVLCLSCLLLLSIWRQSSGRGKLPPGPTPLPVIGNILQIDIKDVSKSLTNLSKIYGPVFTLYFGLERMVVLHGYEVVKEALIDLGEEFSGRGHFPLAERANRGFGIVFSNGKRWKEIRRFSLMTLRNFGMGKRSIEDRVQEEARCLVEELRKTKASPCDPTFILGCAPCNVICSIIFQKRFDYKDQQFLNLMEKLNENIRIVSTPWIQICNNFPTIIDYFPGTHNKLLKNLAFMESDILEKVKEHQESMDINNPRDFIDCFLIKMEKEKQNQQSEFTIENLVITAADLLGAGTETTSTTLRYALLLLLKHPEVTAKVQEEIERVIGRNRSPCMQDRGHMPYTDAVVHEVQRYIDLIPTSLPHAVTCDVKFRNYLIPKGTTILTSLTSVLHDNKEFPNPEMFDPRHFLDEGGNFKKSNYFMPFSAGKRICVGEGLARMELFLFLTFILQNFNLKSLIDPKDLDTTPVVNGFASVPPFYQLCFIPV
# method description: Cytochrome P450 Family 2 Subfamily C Member 19 (CYP2C19) small molecule antagonists: luciferase reporter qHTS assay (AID 1671197); further: nearly all actives have a fitted effect of over 65% in size
# assay conditions: P450-Glo CYP2C19 enzyme, luciferin luminescence, 1 h; series mostly up to 115 µM
Inconclusive results are not listed. Calls of active or inactive are those of the source. The call rests on the fitted dose curve; in most records, active means well fitted inhibition curve with a large enough effect in the repeat runs; inconclusive means weak or mixed curves; inactive means no such curve, though single readings can be large or run the other way.
Classes used: active, inactive

* CCCC(CC)CCCCCCCN (centres undefined) | active
* CCCCCCCC(=O)OCC | inactive
* C[C@@]12C(=O)OC(=O)[C@]1(C)C1CCC2O1 | inactive
* CCCCCCCCC(C)=O | inactive

---

# method description: qHTS RealTime-Glo MT Cell Viability Assay in HEK293 cells - 40 hour (AID 1224874); further: on the % scale 0 is the no-effect control and ±100 the full control effect; nearly all actives have a fitted effect of over 50% in size
# assay conditions: RealTime-Glo luminescence; stronger effect = lower value
# Description: U.S. Tox21 Program National Center for Advancing Translational Sciences [NCATS] NIH Chemical Genomics Center [NCGC] U.S. Environmental Protection Agency [EPA] National Institutes of Environmental Health Sciences [NIEHS] National Toxicology Program [NTP] U.S. Food and Drug Administration [FDA] Tox21 Assay Overview: Measure of cell viability is critical in the cell-base assay. Analysis of cell viability is necessary for the characterization of cell responses to cytotoxic drugs and environmental stress. […]
Results filed as inconclusive are left out.
Reported max response values for the following compounds.
parameter measured: max response (%)

• Cc1cc(C)c(C=O)c(C)c1 = 8.02
• OCCCS = 7.88
• CCOCN(C(=O)CS(=O)(=O)O)c1c(C)cccc1CC = 8.02
• C/C=C/C=N/NC(=O)c1ccncc1 = 11.4
• CCC1CCCCC1 = -1.07
• COC(=O)CC(C)CCC=C(C)C (configuration not stated) = 7.75
• CCc1ccc(C)nc1 = -9.25
• CCc1c(Br)c(Br)c(Br)c(Br)c1Br = 4.82
• CC1CCCCC1 = 5.61
• CS(C)(=O)=O = -3.02
• CCC(=O)CC(C)CC (configuration not stated) = 3.72
• O=C1OC(OC(=O)c2cccnc2Nc2cccc(C(F)(F)F)c2)c2ccccc21 (configuration not stated) = -1.07
• CCC(=O)OCCc1ccccc1 = 14
• CCc1c(C(=O)O)c(=O)cnn1-c1ccc(Cl)cc1 = 18.5
• NCCCC(O)(P(=O)(O)O)P(=O)(O)O = 12.2
• OCCCc1cccnc1 = -2.22
• CC(=O)OC1CCCCC1 = -7.58
• C/C=C/CO = 8.59
• CCCCCCCCCCCCCOP(=O)(O)O = -0.341
• c1ccc2c(c1)CCC2 = 5.18
• CC1CNCC(C)O1 (configuration not stated) = 11.7
• C=CC(=C)CCC=C(C)C = 8.59
• CC(C)CCOCCC(C)C = 7.57
• CSc1c(Cl)c(Cl)c(Cl)c(Cl)c1Cl = -20.6
• O=C[C@H](O)[C@H](O)[C@H](O)CO = 0.822
• CCOC(OCC)C(=O)c1ccccc1 = 0.351
• CCc1ccc(O)c(C(C)(C)C)c1 = -13.3
• COc1cccc(OC)c1O = 8.86
• CN(C)c1ccc(N=Nc2ccccc2C(=O)O)cc1 = 2
• CC(=O)C=O = 3.76
• O=C=NCc1cccc(CN=C=O)c1 = 3.93
• c1cc[nH]c1 = 10.9
• Clc1ccccc1CN1CCc2sccc2C1 = -22.8
• C[C@@H]1CC[C@H]2C(C)(C)[C@H]3C[C@@]12CC[C@@]3(C)O = -18.5
• Cc1cc(=O)[nH]c(=O)[nH]1 = -0.154
• COc1cc(C(=O)NS(=O)(=O)c2ccccc2C)ccc1Cc1cn(C)c2ccc(NC(=O)OC3CCCC3)cc12 = -0.13
• O=C1OC(=O)c2ccc3c4c(ccc1c24)C(=O)OC3=O = 0.327
